System: SF-268 CNS
Assay: NCI tumour cell line growth inhibition, 48 h; in the data active = GI50 below about 0.43 µM; inactive = the rest
Select the correct class. Options are true for active, false for inactive and nothing else.

// known answers, use as guide
INSERT INTO results (compound, class_name) VALUES
  ('COc1ccc2[nH]c(=O)c3c4ccccc4cn3c2c1', 'false'),
  ('Cc1ccc2c(c1)C(C)Cc1c(ncnc1-n1cnc3ccccc31)N2C (stereo not given)', 'false'),
  ('O=C1c2ccccc2-c2c1c1ccccc1c(=O)n2CCCCNCCCn1c2c(c3ccccc3c1=O)C(=O)c1ccccc1-2', 'true'),
  ('CC1(C)N=C(N)N=C(N)N1c1cccc(CCCCc2cccc(S(=O)(=O)F)c2)c1', 'false');

Please look at the following compound next.
Entry O=C(NC1CCN(Cc2ccccc2)CC1)c1cc(-c2ccncc2)nc2ccc(Cl)cc12 : call = ? false

---

Test system: SK-MEL-5 melanoma
Test: NCI tumour cell line growth inhibition, 48 h
Definition: the class of an entry is the range in low range: < 10 µM; mid range: ≥ 10 µM and < 40 µM; high range: ≥ 40 µM that contains its TGI.

// known answers, use as guide
INSERT INTO measurements (molecule, test_target, class_name) VALUES
  ('Cc1ccc(C2=Nc3cc(C)c(Cl)cc3S(=O)(=O)NN2)cc1', 'SK-MEL-5 melanoma', 'high range'),
  ('Clc1ccc(CSC(Cn2ccnc2)c2ccc(Cl)cc2Cl)cc1 (stereo unspecified)', 'SK-MEL-5 melanoma', 'low range');

Category of CN(C)CCOc1ccc2[nH]c(C(=O)N3CC(CCl)c4c3cc(N)c3ccccc43)cc2c1 (stereo unspecified) : low range

Category of CS(=O)(=O)c1ccc(/C=N/NC(N)=S)cc1 : high range

Category of CC1CC(C)C(O)C(C2CC(CC(=O)NC3CCCCC3)CC(=O)O2)C1 (stereo unspecified) : high range

---

TGI overview
Test system: SW-620 colon
Assay: NCI tumour cell line growth inhibition, 48 h

INSERT INTO assay_data (compound, measured_endpoint, obs_value) VALUES
  ('C/C=C/[C@H]1O[C@@](O)([C@@H](C)[C@H](O)[C@H](C)[C@H]2OC(=O)/C(OC)=C/C(C)=C/[C@@H](C)[C@@H](O)[C@@H](CC)[C@@H](O)[C@H](C)C/C(C)=C/C=C/[C@@H]2OC)C[C@H](OC2CC(O)C(O)C(C)O2)[C@@H]1C (stereo partly specified)', 'TGI', '10.4 µM'),
  ('C/C(CN1C(=O)c2ccccc2C1=O)=N\NS(=O)(=O)c1ccc(C)cc1', 'TGI', '> 100 µM'),
  ('CC(C)/C=C1\CCC(CN2CCCC2)C1=O (stereo unspecified)', 'TGI', '7.94 µM'),
  ('O=C1OC(c2ccccc2)=N/C1=C\c1cccnc1', 'TGI', '> 100 µM'),
  ('Cc1c2cc[n+](C)cc2c(C)c2c1sc1ccccc12', 'TGI', '33.1 µM'),
  ('CCc1nc(N)nc(N)c1-c1ccc(NCCN)c([N+](=O)[O-])c1', 'TGI', '> 100 µM'),
  ('COc1ccc(OC)c(/C=N/NC(=O)Cc2csc3nc(-c4ccc(Br)cc4)cn23)c1', 'TGI', '49.1 µM'),
  ('COc1cc2c(/C=C3/C(=O)N(C)c4ccccc43)c(Cl)[nH]c2cc1C', 'TGI', '> 100 µM');

Reported TGI ( CCCCON(OC(=O)c1ccccc1)C(=O)c1ccccc1 ) = > 100 µM

Reported TGI ( COc1ccc(/C=C2\CCC(C)C3=C(c4ccc(OC)c(OC)c4)C(C#N)=C(N)OC32)cc1OC (stereo unspecified) ) = > 100 µM

Reported TGI ( O=C1[C@@H]2C(c3ccccc3Br)=NO[C@@H]2C(=O)N1c1ccc(Cc2ccc(N3C(=O)[C@H]4C(c5ccccc5Br)=NO[C@H]4C3=O)cc2)cc1 ) = > 100 µM

Reported TGI ( C[N+](C)(C)CC1CCCC/C1=N\OC(=O)c1ccccc1 (stereo unspecified) ) = > 100 µM

Reported TGI ( Cc1ccc([N+](=O)[O-])cc1NC(=O)Nc1cccc(F)c1 ) = > 100 µM

---

Test system: EKVX NSCLC
Assay: NCI tumour cell line growth inhibition, 48 h
GI50 overview

# example entries with known answers
INSERT INTO assay_data (molecule, measured_endpoint, obs_value) VALUES
  ('O=C(Nc1ccc(Cl)c(Cl)c1)c1cccc(NC2=C(Cl)C(=O)N(Cc3ccccc3)C2=O)c1', 'GI50', '20.2 µM'),
  ('Cc1ccc([N+](=O)[O-])cc1NC(=O)Nc1cccc(F)c1', 'GI50', '3.68 µM'),
  ('Cc1ccc2c(c1)C(C)Cc1c(ncnc1-n1cnc3ccccc31)N2C (centres undefined)', 'GI50', '0.511 µM');

Turning to the following molecule.
Reported GI50 ( COc1cc(C(=O)/C=C/c2c(C)n([O-])c3ccc(C)cc3[n+]2=O)cc(OC)c1OC ) = 19.4 µM

---

TGI overview
Test system: UACC-257 melanoma
Experiment: NCI tumour cell line growth inhibition, 48 h

# example entries with known answers
INSERT INTO results (compound, test_target, obs_value) VALUES
  ('COc1cc(/C=C/c2ccncc2)cc(OC)c1OC', 'UACC-257 melanoma', '> 100 µM'),
  ('CC(=O)OC12/C(=N/O)CCCCCC1c1ccccc12 (stereo unspecified)', 'UACC-257 melanoma', '> 100 µM'),
  ('COc1cc(-c2cn(S(=O)(=O)c3ccc(C)cc3)c3ccccc23)nc(-c2cn(S(=O)(=O)c3ccc(C)cc3)c3ccccc23)n1', 'UACC-257 melanoma', '> 100 µM'),
  ('CC(C)(C)OC(=O)NCCCCC(N)C(N)=O (stereo unspecified)', 'UACC-257 melanoma', '> 100 µM'),
  ('CCOC(=O)c1cnn2c1ncc1c(=O)n(NC(N)=O)ccc12', 'UACC-257 melanoma', '> 100 µM'),
  ('N#Cc1c(-c2ccccc2)nc(SCC2CO2)nc1N1CCOCC1 (stereo unspecified)', 'UACC-257 melanoma', '> 100 µM'),
  ('COC(=O)C1=C(c2ccc(OC)c(OC)c2)OC(c2ccc(OC)c(OC)c2)C1 (stereo unspecified)', 'UACC-257 melanoma', '> 100 µM'),
  ('O=C(Nc1cccc(-n2ccc3c(NC(=O)c4ccccc4)nccc32)c1)c1ccc(N2CCOCC2)c(C(F)(F)F)c1', 'UACC-257 melanoma', '> 100 µM');

Reported TGI ( CCS(=O)(=O)N1CCC(C(C)n2c(C)c(C(=O)NCc3c(OC)cc(C)[nH]c3=O)c3ccccc32)CC1 (stereo unspecified) ) = > 100 µM

Reported TGI ( Cc1ccc(S(=O)(=O)OC2CCN(C)CC2)cc1 ) = > 100 µM

Reported TGI ( O=C1[C@@H]2C(c3ccccc3Br)=NO[C@@H]2C(=O)N1c1ccc(Cc2ccc(N3C(=O)[C@H]4C(c5ccccc5Br)=NO[C@H]4C3=O)cc2)cc1 ) = > 100 µM

Reported TGI ( COc1cccc(C2c3cc4c(cc3OC(C)(N3CCCC3)C2C)OCO4)c1OC (stereo unspecified) ) = 64.1 µM

Reported TGI ( Cc1ccccc1C(=O)c1c(O)c2c(c(O)c1Br)CCCC2 ) = 29.2 µM

Reported TGI ( O=P1(O)C=CC2(CCCC2)O1 ) = > 100 µM

Reported TGI ( NCCNc1c2c(c(NCCN)c3c(CO)c[nH]c13)C(=O)c1ccccc1C2=O ) = 46 µM

Reported TGI ( O=C(/C=C1\N=C(c2ccccc2)N(c2nc3ccc(Sc4ccccc4)cc3[nH]2)C1=O)/C=C/c1ccccc1 ) = > 100 µM

Reported TGI ( COc1cc(NS(C)(=O)=O)ccc1Nc1c2ccc([N+](=O)[O-])cc2nc2c(C)cccc12 ) = 14.7 µM

Reported TGI ( C=C(C)C(=O)O[C@H]1C/C(CO)=C/CCC(=C)C(OC(C)=O)[C@H]2OC(=O)C(=C)[C@H]12 (stereo partly specified) ) = 24.8 µM

Reported TGI ( COc1cc(Cc2cc3c(c(C(=O)O)c2Br)OCO3)cc(OC)c1OC ) = > 100 µM

Reported TGI ( COC(=O)[C@@]12C(=O)C=CC(=O)[C@@H]1C1C(=CC2COC(C)=O)O[C@@H]2OC3(CCCCC3)O[C@H]12 (stereo partly specified) ) = 30.3 µM

Reported TGI ( COc1cc(C=O)ccc1Oc1nnnn1-c1ccccc1 ) = > 100 µM

---

Test system: IGROV1 ovarian
Test: NCI tumour cell line growth inhibition, 48 h
MEASURED ENDPOINT: TGI (µM)
Please state the figure in µM; there is no need to write the unit.

INSERT INTO results (compound, obs_value) VALUES
  ('COc1cc2c(cc1O)CC[C@@H]1[C@@H]2CC[C@]2(C)[C@@H](NCCN(C)C)CC[C@@H]12', 0.954);

Turning to the following compound.
Reported TGI ( C=C(C)C(=O)O[C@H]1C/C(CO)=C/CCC(=C)C(OC(C)=O)[C@H]2OC(=O)C(=C)[C@H]12 (stereo partly drawn) ) = 48.2
